Target: 5-hydroxytryptamine receptor 2C (Homo sapiens)
Experiment: Displacement of [3H]mesulergine from human recombinant 5HT2C receptor expressed in Flp-IN HEK cells
Can you tell me pKi for the items I'm about to list?
Answers are plain numbers, as −log10 of the molar value.

Examples from the recorded data:
[
  {
    "Input Smiles": "N=C1NC(=O)/C(=C\\c2c[nH]c3ccccc23)N1",
    "pKi": 6.46
  },
  {
    "Input Smiles": "CN1C(=N)N(C)/C(=C/c2c[nH]c3c(Br)cccc23)C1=O",
    "pKi": 5.52
  },
  {
    "Input Smiles": "CN1C(=N)N/C(=C/c2c[nH]c3ccc(Br)cc23)C1=O",
    "pKi": 5.90
  },
  {
    "Input Smiles": "CN1C(=N)N/C(=C/c2c[nH]c3cc(Br)ccc23)C1=O",
    "pKi": 5.72
  },
  {
    "Input Smiles": "CN1C(=N)N(C)/C(=C/c2c[nH]c3ccc(Br)cc23)C1=O",
    "pKi": 5.90
  },
  {
    "Input Smiles": "C/N=C1/N/C(=C/c2c[nH]c3cccc(Br)c23)C(=O)N1C",
    "pKi": 5.63
  },
  {
    "Input Smiles": "O=C1NC(=S)N/C1=C\\c1c[nH]c2ccc(Br)cc12",
    "pKi": 5.36
  },
  {
    "Input Smiles": "CN1C(=N)N/C(=C/c2c[nH]c3c(Br)cccc23)C1=O",
    "pKi": 5.00
  }
]

Dear reader, for each entry below, please note its pKi.
1. CN1C(=N)NC(=O)/C1=C\c1c[nH]c2c(Br)cccc12
2. CN1C(=N)N(C)/C(=C/c2c[nH]c3cc(Br)ccc23)C1=O
3. CN1C(=N)NC(=O)/C1=C\c1c[nH]c2ccc(Br)cc12
4. CSC1=NC(=O)/C(=C/c2c[nH]c3cc(Br)ccc23)N1
5. C/N=C1\N(C)C(=O)/C(=C\c2c[nH]c3cccc(Br)c23)N1C
6. C/N=C1/N/C(=C/c2c[nH]c3ccc(Br)cc23)C(=O)N1C
7. C/N=C1\NC(=O)/C(=C/c2c[nH]c3ccccc23)N1
8. C/N=C1\NC(=O)/C(=C\c2c[nH]c3cccc(Br)c23)N1C

Reply |
[5.38, 5.77, 5.61, 5.36, 5.73, 5.87, 6.01, 6.49]

Working through the 7 compounds below one at a time, give pKi for each.
1. N=C1NC(=O)/C(=C\c2c[nH]c3ccc(Br)cc23)N1
2. C/N=C1\NC(=O)/C(=C\c2c[nH]c3ccccc23)N1C
3. C/N=C1/N/C(=C/c2c[nH]c3ccccc23)C(=O)N1C
4. N=C1NC(=O)/C(=C\c2c[nH]c3cccc(Br)c23)N1
5. CN1C(=N)NC(=O)/C1=C\c1c[nH]c2cccc(Br)c12
6. C/N=C1\NC(=O)/C(=C/c2c[nH]c3cc(Br)ccc23)N1
7. C/N=C1\N(C)C(=O)/C(=C\c2c[nH]c3c(Br)cccc23)N1C

Reply |
1. 7.46
2. 5.63
3. 5.00
4. 6.22
5. 5.70
6. 6.01
7. 5.19

---

Target: 5-hydroxytryptamine receptor 1E (Homo sapiens, UniProt P28566)
Sequence (P28566 whole entry): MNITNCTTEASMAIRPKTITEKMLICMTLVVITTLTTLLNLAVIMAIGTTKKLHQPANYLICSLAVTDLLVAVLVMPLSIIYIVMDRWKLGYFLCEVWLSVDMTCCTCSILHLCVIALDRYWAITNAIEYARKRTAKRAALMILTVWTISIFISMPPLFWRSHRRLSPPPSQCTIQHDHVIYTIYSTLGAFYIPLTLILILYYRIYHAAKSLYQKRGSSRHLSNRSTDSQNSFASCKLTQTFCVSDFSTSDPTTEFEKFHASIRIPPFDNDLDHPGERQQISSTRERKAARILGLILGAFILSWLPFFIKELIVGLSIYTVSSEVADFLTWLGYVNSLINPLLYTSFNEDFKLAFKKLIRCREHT
Experiment: Displacement of [3H]5-HT from human recombinant 5HT1E receptor stably expressed in HEK cells
pKi: −log10 of the molar value.
Field: pKi. Provide a value for each of the molecules that follow.

Here are 2 molecules together with their reported answers.
[
  {
    "Input Smiles": "C/N=C1/N/C(=C/c2c[nH]c3ccccc23)C(=O)N1C",
    "Result": "< 5.00"
  },
  {
    "Input Smiles": "CN1C(=N)N(C)/C(=C/c2c[nH]c3c(Br)cccc23)C1=O",
    "Result": "< 5.00"
  }
]

Ask | Report pKi, nothing else, for this molecule: CN1C(=N)NC(=O)/C1=C\c1c[nH]c2c(Br)cccc12
Reply | < 5.00

---

For each record, write down the corresponding Ki.
Biological target: 5-hydroxytryptamine receptor 2B (Homo sapiens)
Sequence (P41595 whole entry): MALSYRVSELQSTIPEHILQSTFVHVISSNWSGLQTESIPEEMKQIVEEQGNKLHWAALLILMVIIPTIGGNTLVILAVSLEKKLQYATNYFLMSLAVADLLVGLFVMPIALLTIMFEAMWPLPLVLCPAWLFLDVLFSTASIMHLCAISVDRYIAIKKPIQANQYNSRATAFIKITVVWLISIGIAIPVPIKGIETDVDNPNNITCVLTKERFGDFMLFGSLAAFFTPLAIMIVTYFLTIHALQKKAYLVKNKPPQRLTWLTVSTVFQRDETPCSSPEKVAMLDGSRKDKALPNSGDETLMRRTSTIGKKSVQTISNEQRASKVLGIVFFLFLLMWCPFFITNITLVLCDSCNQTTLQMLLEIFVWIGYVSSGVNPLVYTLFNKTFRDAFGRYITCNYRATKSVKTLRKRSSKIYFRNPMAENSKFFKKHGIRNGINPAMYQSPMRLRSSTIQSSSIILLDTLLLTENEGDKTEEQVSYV
Experiment: Displacement of [3H]LSD from human recombinant 5HT2B receptor stably expressed in HEK cells

Example results:
[
  {
    "Molecule": "CSC1=NC(=O)/C(=C/c2c[nH]c3cccc(Br)c23)N1",
    "Result": "780 nM"
  },
  {
    "Molecule": "C/N=C1\\NC(=O)/C(=C/c2c[nH]c3cc(Br)ccc23)N1",
    "Result": "154 nM"
  },
  {
    "Molecule": "CSC1=NC(=O)/C(=C/c2c[nH]c3c(Br)cccc23)N1",
    "Result": "993 nM"
  },
  {
    "Molecule": "C/N=C1\\NC(=O)/C(=C/c2c[nH]c3ccc(Br)cc23)N1",
    "Result": "93 nM"
  },
  {
    "Molecule": "N=C1NC(=O)/C(=C\\c2c[nH]c3ccc(Br)cc23)N1",
    "Result": "51 nM"
  },
  {
    "Molecule": "CN1C(=N)NC(=O)/C1=C\\c1c[nH]c2ccc(Br)cc12",
    "Result": "852 nM"
  }
]

Could you tell me Ki for each of these molecules? They are listed below.
1. O=C1NC(=S)N/C1=C\c1c[nH]c2ccc(Br)cc12
2. CSC1=NC(=O)/C(=C/c2c[nH]c3ccc(Br)cc23)N1
3. CSC1=NC(=O)/C(=C/c2c[nH]c3cc(Br)ccc23)N1
4. C/N=C1\NC(=O)/C(=C\c2c[nH]c3cccc(Br)c23)N1C
5. CN1C(=N)NC(=O)/C1=C\c1c[nH]c2cc(Br)ccc12
6. CN1C(=N)N/C(=C/c2c[nH]c3ccccc23)C1=O

Reply |
1: 1680 nM; 2: 1350 nM; 3: 1140 nM; 4: 99 nM; 5: 1380 nM; 6: 1280 nM

---

Biological target: UniProtKB P34969
Sequence (P34969 whole entry): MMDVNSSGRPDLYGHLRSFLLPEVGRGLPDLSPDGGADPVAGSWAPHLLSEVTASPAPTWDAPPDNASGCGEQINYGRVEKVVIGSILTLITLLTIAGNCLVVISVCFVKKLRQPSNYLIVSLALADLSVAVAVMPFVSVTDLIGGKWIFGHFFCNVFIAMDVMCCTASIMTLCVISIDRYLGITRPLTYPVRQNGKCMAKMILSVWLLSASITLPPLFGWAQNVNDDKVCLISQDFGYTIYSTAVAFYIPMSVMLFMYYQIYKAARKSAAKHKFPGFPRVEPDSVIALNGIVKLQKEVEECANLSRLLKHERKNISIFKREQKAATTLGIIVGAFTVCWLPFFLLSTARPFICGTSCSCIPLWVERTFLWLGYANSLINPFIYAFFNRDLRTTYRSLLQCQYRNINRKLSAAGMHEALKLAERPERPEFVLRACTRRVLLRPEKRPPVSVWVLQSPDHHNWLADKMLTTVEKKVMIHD
Experiment: Displacement of [3H]LSD from human recombinant 5HT7 receptor stably expressed in HEK cells
Please go through the items and note down their Ki.
Give bare numbers, in nM.

Solved entries (count: 2):
[
  {
    "Input Smiles": "C/N=C1\\N(C)C(=O)/C(=C\\c2c[nH]c3ccc(Br)cc23)N1C",
    "Quantitative Result": 5370
  },
  {
    "Input Smiles": "C/N=C1/N/C(=C/c2c[nH]c3ccc(Br)cc23)C(=O)N1C",
    "Quantitative Result": 3350
  }
]

# batch size: 4; output Ki per entry
1. CN1C(=N)NC(=O)/C1=C\c1c[nH]c2cccc(Br)c12
2. CN1C(=N)N/C(=C/c2c[nH]c3ccc(Br)cc23)C1=O
3. N=C1NC(=O)/C(=C\c2c[nH]c3ccc(Br)cc23)N1
4. C/N=C1\NC(=O)/C(=C\c2c[nH]c3ccc(Br)cc23)N1C

Reply |
1. 799
2. 1220
3. 512
4. 4110

---

Molecular target: 5-hydroxytryptamine receptor 2C (Homo sapiens)
Sequence (P28335 whole entry): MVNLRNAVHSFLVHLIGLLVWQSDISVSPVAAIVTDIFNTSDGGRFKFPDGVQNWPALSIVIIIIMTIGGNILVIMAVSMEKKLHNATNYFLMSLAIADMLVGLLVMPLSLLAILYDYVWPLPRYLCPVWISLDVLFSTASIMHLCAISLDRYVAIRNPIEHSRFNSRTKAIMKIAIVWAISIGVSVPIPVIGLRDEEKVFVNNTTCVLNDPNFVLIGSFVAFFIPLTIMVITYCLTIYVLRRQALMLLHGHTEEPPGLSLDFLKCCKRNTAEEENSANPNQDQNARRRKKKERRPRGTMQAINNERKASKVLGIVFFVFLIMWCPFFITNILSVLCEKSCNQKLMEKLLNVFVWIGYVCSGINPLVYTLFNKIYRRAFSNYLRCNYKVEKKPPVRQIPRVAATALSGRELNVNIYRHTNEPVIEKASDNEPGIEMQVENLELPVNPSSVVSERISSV
Test: Displacement of [3H]mesulergine from human recombinant 5HT2C receptor expressed in Flp-IN HEK cells
Provide the recorded pKi for the entries that follow.
Answers are plain numbers, as −log10 of the molar value.

Worked examples follow.
[
  {
    "Compound": "O=C1NC(=S)N/C1=C\\c1c[nH]c2cccc(Br)c12",
    "Tgt": "5-hydroxytryptamine receptor 2C (Homo sapiens)",
    "pKi": 5.73
  },
  {
    "Compound": "C/N=C1/N/C(=C/c2c[nH]c3c(Br)cccc23)C(=O)N1C",
    "Tgt": "5-hydroxytryptamine receptor 2C (Homo sapiens)",
    "pKi": 5.00
  },
  {
    "Compound": "C/N=C1\\NC(=O)/C(=C/c2c[nH]c3c(Br)cccc23)N1",
    "Tgt": "5-hydroxytryptamine receptor 2C (Homo sapiens)",
    "pKi": 6.17
  },
  {
    "Compound": "C/N=C1\\NC(=O)/C(=C\\c2c[nH]c3cc(Br)ccc23)N1C",
    "Tgt": "5-hydroxytryptamine receptor 2C (Homo sapiens)",
    "pKi": 5.64
  },
  {
    "Compound": "C/N=C1\\NC(=O)/C(=C\\c2c[nH]c3c(Br)cccc23)N1C",
    "Tgt": "5-hydroxytryptamine receptor 2C (Homo sapiens)",
    "pKi": 5.66
  },
  {
    "Compound": "CN1C(=N)NC(=O)/C1=C\\c1c[nH]c2cc(Br)ccc12",
    "Tgt": "5-hydroxytryptamine receptor 2C (Homo sapiens)",
    "pKi": 5.41
  },
  {
    "Compound": "C/N=C1\\NC(=O)/C(=C/c2c[nH]c3ccc(Br)cc23)N1",
    "Tgt": "5-hydroxytryptamine receptor 2C (Homo sapiens)",
    "pKi": 6.37
  },
  {
    "Compound": "CN1C(=N)N/C(=C/c2c[nH]c3ccccc23)C1=O",
    "Tgt": "5-hydroxytryptamine receptor 2C (Homo sapiens)",
    "pKi": 5.00
  },
  {
    "Compound": "C/N=C1\\N(C)C(=O)/C(=C\\c2c[nH]c3ccccc23)N1C [METHYLAPLYSINOPSIN]",
    "Tgt": "5-hydroxytryptamine receptor 2C (Homo sapiens)",
    "pKi": 5.00
  },
  {
    "Compound": "C/N=C1\\NC(=O)/C(=C/c2c[nH]c3cccc(Br)c23)N1",
    "Tgt": "5-hydroxytryptamine receptor 2C (Homo sapiens)",
    "pKi": 7.10
  }
]

For every item in the list below, what is its measured pKi?
1. C/N=C1\N(C)C(=O)/C(=C\c2c[nH]c3ccc(Br)cc23)N1C
2. N=C1NC(=O)/C(=C\c2c[nH]c3cc(Br)ccc23)N1
3. C/N=C1\NC(=O)/C(=C\c2c[nH]c3ccc(Br)cc23)N1C
4. CN1C(=N)NC(=O)/C1=C\c1c[nH]c2ccccc12
5. CN1C(=N)N(C)/C(=C/c2c[nH]c3cccc(Br)c23)C1=O
6. CSC1=NC(=O)/C(=C/c2c[nH]c3ccc(Br)cc23)N1

Reply |
1: 5.61; 2: 6.70; 3: 5.97; 4: 5.32; 5: 5.56; 6: 5.68
